Recorded measurements of response of 2nd mAb, one per entry
# target_desc: T1, ZIKV-VLP (Native Antigen Inc.) (Zika virus)
# T1 construct: also called Zika VLP; ZVLP
# assay_summary: BLI binning on ZIKV-VLP; 1st mAb: 102-1

{"binder": "anti-ZIKV antibody 306-2 (antibody, V domains shown) VH: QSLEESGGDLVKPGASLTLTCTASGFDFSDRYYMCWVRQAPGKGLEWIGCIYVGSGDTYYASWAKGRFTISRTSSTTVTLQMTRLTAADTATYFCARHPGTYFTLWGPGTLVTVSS VL: DVVMTQTPSSVSAAVGGTVTINCQASQNIVNNLAWYQQRPGQPPKLLIYDTSTLASGVPSRFKGSGSGTEFTLTISDLECADAATYYCQTYYYYNKIINGFGGGTEVVVKG", "response of 2nd mAb": 0.07}
{"binder": "anti-ZIKV antibody 289-3 (antibody, V domains shown, also called clone 289-3; subclone 289-3) VH: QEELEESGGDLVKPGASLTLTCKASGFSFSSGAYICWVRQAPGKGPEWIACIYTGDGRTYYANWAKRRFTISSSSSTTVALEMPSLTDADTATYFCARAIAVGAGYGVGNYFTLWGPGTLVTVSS VL: DIVMTQTPSSVSAAVGGTVTINCHASENIYGYLSWYQQKPGQPPKLLIYKASTLASGVPSRFKGSGAGTQFTLTITALECADAATYYCQSYYTSSSNADGSENAFGGGTEVVVEG", "response of 2nd mAb": 0.09}
{"binder": "anti-ZIKV antibody 270-12 (antibody, V domains shown, also called clone 270-12) VH: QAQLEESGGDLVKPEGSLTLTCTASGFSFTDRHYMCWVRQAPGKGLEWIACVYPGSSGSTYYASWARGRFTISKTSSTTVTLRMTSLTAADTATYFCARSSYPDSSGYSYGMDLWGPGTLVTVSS VL: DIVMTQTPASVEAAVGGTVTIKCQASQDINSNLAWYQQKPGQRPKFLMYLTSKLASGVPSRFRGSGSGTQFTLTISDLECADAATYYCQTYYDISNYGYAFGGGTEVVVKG", "response of 2nd mAb": 0.07}
